Measurement description: Proton dissociation constants by pH-potentiometry
Assay type: physicochemical
Assay conditions: pKa1 (pHm)
Measured pKa values are reported for all entries that follow.
Just the number, please, no unit after it.

>  <Smiles notation>
CC(C)C(=O)OC[C@H]1O[C@@H](n2ccc(NO)nc2=O)[C@H](O)[C@@H]1O

>  <pKa>
2.14

$$$$

Now look at this one.
Task item: Item NC(=O)c1nc(F)c[nH]c1=O has what recorded pKa?
Reply: 5.11

====

Measurement description: physchem
Assay conditions: pH 2, logD2.0
Measure: logD at 2 h
Lab note: write the figure by itself, no unit.

>  <Smiles notation>
CC(C)C(=O)OC[C@H]1O[C@@H](n2ccc(NO)nc2=O)[C@H](O)[C@@H]1O

>  <logD at 2 h>
-0.68

$$$$

Task item: Item NC(=O)c1nc(F)c[nH]c1=O has what recorded logD at 2 h?
Reply: 0.15
